# Test system: C. difficile
# Experiment description: agar dilution MIC assay of anaerobic bacteria
# Type: cell-based, Clostridium difficile
# Condition description: Clostridioides difficile, C. diff., Micromyx Number 3581, Table 2; read-out: MIC
Quantity name: MIC (µg/mL)
Numbers only; they are read as µg/mL.

Record CC(C)C(=O)OCCCCCn1cnc2nc(NCc3ccc(Cl)c(Cl)c3)[nH]c(=O)c21 [Compound 332E] / C. difficile, MIC recorded as 2

Tested on C. difficile, the item Cc1ncc([N+](=O)[O-])n1CCO [metronidazole, reference compound] showed MIC equal to 0.5

Reading of MIC for CN[C@H](CC(C)C)C(=O)N[C@H]1C(=O)N[C@@H](CC(N)=O)C(=O)N[C@H]2C(=O)N[C@H]3C(=O)N[C@H](C(=O)N[C@H](C(=O)O)c4cc(O)cc(O)c4-c4cc3ccc4O)[C@H](O)c3ccc(c(Cl)c3)Oc3cc2cc(c3O[C@@H]2O[C@H](CO)[C@@H](O)[C@H](O)[C@H]2O[C@H]2C[C@](C)(N)[C@H](O)[C@H](C)O2)Oc2ccc(cc2Cl)[C@H]1O [vancomycin, reference compound] with C. difficile: 4

CCOCCn1cnc2nc(NCc3ccc(Cl)c(Cl)c3)[nH]c(=O)c21 [Compound 325E] on C. difficile gives MIC = 1

Recorded MIC for O=c1[nH]c(NCc2ccc(Cl)c(Cl)c2)nc2ncn(CCCCCN3CCOCC3)c12 [Compound 359E] on C. difficile was 2

====

# Test system: Ba. fragilis
# Experiment description: agar dilution MIC assay of anaerobic bacteria
# Type: cell-based
# Condition description: Bacteroides fragilis, B. fragilis, Strain no. 0123 (ATCC strain), Gram-negative (control), Table 3
Quantity name: MIC

So for O=c1[nH]c(NCc2ccc(Cl)c(Cl)c2)nc2ncn(CCOCCN3CCOCC3)c12 [Compound 360A] , the logged MIC turned out to be > 32 µg/mL

Please fill in: MIC reported for O=c1[nH]c(NCc2ccc(Cl)c(Cl)c2)nc2ncn(CCCCCN3CCOCC3)c12 [Compound 359E] = > 32 µg/mL

Note to self: MIC recorded for Cc1ncc([N+](=O)[O-])n1CCO [metronidazole, reference compound] was 0.5 µg/mL

Just so you know, measured MIC for Cl.O=c1cc(NCc2ccc(Cl)c(Cl)c2)[nH]c(=O)n1CCOCCN1CCOCC1 [Compound 240D] came out at > 32 µg/mL

====

# Test system: C. difficile
# Experiment description: agar dilution MIC assay of anaerobic bacteria
# Format: cell-based, Clostridium difficile
# Condition description: Clostridioides difficile, C. diff., Strain no. 3582, Table 3; read-out: MIC
Quantity name: MIC (µg/mL)
Output spec: scalar in µg/mL, unitless text.

Recorded MIC for Cl.O=c1cc(NCc2ccc(Cl)c(Cl)c2)[nH]c(=O)n1CCOCCN1CCOCC1 [Compound 240D] on C. difficile was 32

The observed MIC for Cc1ncc([N+](=O)[O-])n1CCO [metronidazole, reference compound] when tested with C. difficile stands at 0.5

Form field MIC for item O=c1[nH]c(NCc2ccc(Cl)c(Cl)c2)nc2ncn(CCCCCN3CCOCC3)c12 [Compound 359E] on C. difficile: 8

Entry O=c1[nH]c(NCc2ccc(Cl)c(Cl)c2)nc2ncn(CCOCCN3CCOCC3)c12 [Compound 360A] under C. difficile had MIC of 16
